Reference source: patent US7781565B2

# Tested on: NCI-60 cell lines
# Format: cell-based, human
outcomeMeasure: Cell Line (NCI-60 cell line the peptide is associated with)

Example cases with answers are listed next.
LSLAGAG :: HT-29 Colon
QVRRGVV :: HT-29 Colon
DLGSVQH :: HT-29 Colon
ASGRVAN :: HCT-116 Colon
LRARGGH :: HT-29 Colon

Provide each entry's Cell Line (NCI-60 cell line the peptide is associated with) from the list below.
1. AGRPRAT
2. ARRGSGL
3. LRSGSLG
4. HIGLGGL
5. PLRSVWS
6. GVAGLRW

["HCT-116 Colon", "MALME-3M Melanoma", "SF-268 CNS", "SF-295 CNS", "SF-268 CNS", "SW620-Colon"]

Quick request: Cell Line (NCI-60 cell line the peptide is associated with) for each listed item, please.
1. VYYALRS
2. GRPLGGR
3. RNPGRLA
4. DTLASLR
5. FDRGSLT

KM-12C Colon
HCT-15 Colon
HT-29 Colon
HT-29 Colon
SF-295 CNS

The following substances each have a reported value; give each one's Cell Line (NCI-60 cell line the peptide is associated with).
1. GLLSAGI
2. LRSSMML
3. GRGGSGY
4. ARGIVRV
5. RRPGLRS

SF-268 CNS
MALME-3M Melanoma
HT-29 Colon
SW620-Colon
HT-29 Colon

Give measured Cell Line (NCI-60 cell line the peptide is associated with) for every item shown.
1. GFASLLR
2. QTLSAGG
3. YGQYGGL
4. LGRVHVW
5. LAGGWGS

HCT-15 Colon
SF-295 CNS
HCT-15 Colon
HT-29 Colon
SF-295 CNS

# batch: return Cell Line (NCI-60 cell line the peptide is associated with) for each of the 5 substances below
1. GGVRIAA
2. LGGGGLL
3. WTERASA
4. SGLVAMV
5. MYLRLLR

1: HCT-116 Colon; 2: KM-12C Colon; 3: HCT-15 Colon; 4: SW620-Colon; 5: HCT-116 Colon

Batch of 6 substances: report Cell Line (NCI-60 cell line the peptide is associated with) for each.
1. LGTAVSS
2. AGRIASK
3. GGLSRSN
4. GRVPTVV
5. VAGRVGI
6. IAAVWRS

SF-268 CNS
HT-29 Colon
SF-268 CNS
KM-12C Colon
MALME-3M Melanoma
HCT-116 Colon

Record TREGGLD : what is its Cell Line (NCI-60 cell line the peptide is associated with) with NCI-60 cell lines?
KM-12C Colon

* * *

# Tested on: NCI-60 cell lines
# Type: cell-based, human
outcomeMeasure: Cell Line with which the peptide (and its tripeptide motif) is associated

LGSSRVL :: Hop-92-Lung
RAAVSAI :: Molt-4-Leukemia
HKLARGR :: EKVX-Lung
LSFSRGS :: HL-60-Leukemia
GGRAIGA :: Hop-92-Lung

Need Cell Line with which the peptide (and its tripeptide motif) is associated for each of these substances.
1. DWGRSSF
2. LEGVRLF
3. AGSLSVF
4. VGSVVGR
5. LLRLSLA
6. KSGSSVL

1: A549-Lung; 2: Hop-62-Lung; 3: CCRF-CEM Leukemia; 4: Hop-92-Lung; 5: H23-Lung; 6: HL-60-Leukemia

* * *

# System: NCI-60 cell lines
# Format: cell-based, human
outcomeMeasure: Cell Line (NCI-60 cell line the peptide is associated with)

HGGPGAV :: LOX-IMVI Melanoma
RLLSEGY :: SNB-75 CNS
LLSRRVG :: SNB-75 CNS
SGSVVQR :: LOX-IMVI Melanoma

* * *

# Test system: NCI-60 cell lines
# Assay type: cell-based, human
outcomeMeasure: Cell Line with which the peptide (and its tripeptide motif) is associated

DRGVPGL :: HL-60-Leukemia
AGGPTKY :: SR Leukemia
FSSKRGV :: RPMI-8226-Leukemia
QVMMRGS :: HL-60-Leukemia
GLGNRPT :: RPMI-8226-Leukemia

Give measured Cell Line with which the peptide (and its tripeptide motif) is associated for every item shown.
1. AGSQSWE
2. GGSVRHV
3. AVSKRLP
4. RGVGWAK
5. AMRPGRL
6. AGLSGSQ
7. GAGSISD
8. HSESAAV

A549-Lung
RPMI-8226-Leukemia
H522-Lung
H322-Lung
RPMI-8226-Leukemia
RPMI-8226-Leukemia
RPMI-8226-Leukemia
Hop-62-Lung

* * *

# System: NCI-60 cell lines
# Format: cell-based, human
outcomeMeasure: Cell Line with which the peptide (and its tripeptide motif) is associated

Past entries and their recorded results:
HVSGGSG :: Hop-92-Lung
GSGGSVH :: Hop-92-Lung
INWAGLS :: Hop-92-Lung
GGALLRG :: Hop-92-Lung

In the following, a different substance is considered.
Which measured Cell Line with which the peptide (and its tripeptide motif) is associated value corresponds to MGSAVSL ?
Hop-92-Lung

* * *

# Tested on: NCI-60 cell lines
# Assay type: cell-based, human
outcomeMeasure: Cell Line (NCI-60 cell line the peptide is associated with)

// worked examples, Cell Line (NCI-60 cell line the peptide is associated with) included
FTSGVSW :: COLO-205-Colon
RIDAGGG :: SW620-Colon
LKVRGVL :: HT-29 Colon
HGGRARL :: HT-29 Colon
GGASLTQ :: SF-295 CNS

Batch of 2 substances: report Cell Line (NCI-60 cell line the peptide is associated with) for each.
1. DVVGVLK
2. GVRRSLL

1. SF-268 CNS
2. SNB-75 CNS

Consider the following items and state reported Cell Line (NCI-60 cell line the peptide is associated with) for each.
1. VEEGRLR
2. GLVSSLP
3. AGGIWIR
4. SSRGGSS
5. GRLAVVA
6. RAAVIHT
7. GTLRVGS
8. GAGRGTP

SW620-Colon
HCT-15 Colon
KM-12C Colon
MALME-3M Melanoma
HT-29 Colon
MALME-3M Melanoma
HT-29 Colon
HT-29 Colon

Dear reader, for each entry below, please note its Cell Line (NCI-60 cell line the peptide is associated with).
1. ALAGGGL
2. RPKLRSV
3. AAGRIRP

SNB-75 CNS
MALME-3M Melanoma
HCT-15 Colon

# batch: return Cell Line (NCI-60 cell line the peptide is associated with) for each of the 3 substances below
1. DNDGARG
2. MSNLAAV
3. LRSWLLF

1. COLO-205-Colon
2. COLO-205-Colon
3. HT-29 Colon

* * *

# System: NCI-60 cell lines
# Type: cell-based, human
outcomeMeasure: Cell Line (NCI-60 cell line the peptide is associated with)

Below: 4 substances and their reported Cell Line (NCI-60 cell line the peptide is associated with).
RAVGYNA :: MALME-3M Melanoma
LLSGVIL :: LOX-IMVI Melanoma
MITRGRL :: HCT-15 Colon
SSGGRSS :: MALME-3M Melanoma

Record Cell Line (NCI-60 cell line the peptide is associated with) for all entries; do not skip any.
1. IGASLLG
2. GAAASGY
3. AASGSYY
4. DWRRRAV
5. RDGRGAG

SF-268 CNS
SW620-Colon
HT-29 Colon
HCT-15 Colon
SF-295 CNS

* * *

# Tested on: NCI-60 cell lines
# Assay type: cell-based, human
outcomeMeasure: Cell Line with which the peptide (and its tripeptide motif) is associated

Consider the following illustrative entries.
ASVRAGR :: Molt-4-Leukemia
ARAIGLG :: Molt-4-Leukemia
GRVVGEA :: H322-Lung
SERSSLG :: Hop-92-Lung

For every record below, what is its Cell Line with which the peptide (and its tripeptide motif) is associated?
1. AGRRFGG
2. VGAVYFL
3. GAVDGSR
4. LLLRSGG
5. GESGRLS
6. ATGRVLG
7. GRVTVAV

["EKVX-Lung", "H322-Lung", "RPMI-8226-Leukemia", "RPMI-8226-Leukemia", "Hop-92-Lung", "Molt-4-Leukemia", "A549-Lung"]

Report Cell Line with which the peptide (and its tripeptide motif) is associated for each item below.
1. DAGRTID
2. HGYRAGG
3. RIGRVWA
4. FWISRAS
5. AAGRAGC
6. RRLSYRD
7. ARNAASP

1. Hop-62-Lung
2. Hop-62-Lung
3. Molt-4-Leukemia
4. RPMI-8226-Leukemia
5. H322-Lung
6. RPMI-8226-Leukemia
7. A549-Lung

Provide reported Cell Line with which the peptide (and its tripeptide motif) is associated for each item, in the same order as listed.
1. GGRSWVN
2. GSGRGVA
3. SGVSGLS

1: RPMI-8226-Leukemia; 2: Hop-92-Lung; 3: EKVX-Lung

* * *

# Tested on: NCI-60 cell lines
# Assay type: cell-based, human
outcomeMeasure: Cell Line with which the peptide (and its tripeptide motif) is associated

Recorded results for 5 substances are shown here.
VGRGRLH :: EKVX-Lung
VLGMRSS :: SR Leukemia
GAVRARL :: SR Leukemia
GSSRTFR :: A549-Lung
GSSWVVD :: A549-Lung

Return reported Cell Line with which the peptide (and its tripeptide motif) is associated values for all items listed beneath this line.
1. GGSFSGL
2. SGVGSSL

1: A549-Lung; 2: EKVX-Lung
